- Format: in vivo, male Swiss albino mice
- test context: subcutaneous, dose 0.20 mg/kg
endpoint name: Analgesic action, inhibition action on phenylquinone writhing, % inhibition (%)
Kindly answer with a numeric value in %, unit omitted.

Examples with their reported Analgesic action, inhibition action on phenylquinone writhing, % inhibition follow.
[[record]]
molecule = "Nc1ccc(S(=O)(=O)N=C2CCCCN2CC2CCC2)cc1 [Compound W-24]"
readout_value = 61

[[record]]
molecule = "Nc1ccc(S(=O)(=O)N=C2CCCCN2CCc2ccccc2)cc1 [Compound W-16]"
readout_value = 56

[[record]]
molecule = "O=S(=O)(N=C1CCCCN1CCc1ccccc1)c1cccnc1 [Compound W-17]"
readout_value = 65


Shifting focus to the molecule that follows.
Q) Need Analgesic action, inhibition action on phenylquinone writhing, % inhibition, item O=S(=O)(N=C1CCCCN1CC1CCC1)c1cccnc1 [Compound W-25]
A) 69
